B1: library; a variant is named by its letters at N, in order (parent)
chain: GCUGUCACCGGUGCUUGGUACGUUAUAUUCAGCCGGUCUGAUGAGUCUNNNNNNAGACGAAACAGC

variants of: B1; assay: FACS-Seq fitted mean relative fluorescence mCherry/BFP with ligand (log10 relative fluorescence); HEK293T overexpressing SLC46A1; ligand concentration (+) FACS-Seq: 6 mM; higher = higher reporter protein expression; settings: with (6R,S)-folinic acid; ligand present: yes
Grouping rule (FACS-Seq fitted mean (log10)): interval 1: < 0.3; interval 2: ≥ 0.3 and < 0.4; interval 3: ≥ 0.4

>  <Mutation spec>
GUGACA

>  <Group label>
interval 3

$$$$
>  <Mutation spec>
UGAGUA

>  <Group label>
interval 3

$$$$
>  <Mutation spec>
GUAAUG

>  <Group label>
interval 3

$$$$
>  <Mutation spec>
UACUGC

>  <Group label>
interval 2

$$$$
>  <Mutation spec>
GGUGCA

>  <Group label>
interval 1

$$$$
>  <Mutation spec>
ACGGAU

>  <Group label>
interval 2

$$$$
>  <Mutation spec>
AUGACU

>  <Group label>
interval 2

$$$$
>  <Mutation spec>
GUGAGA

>  <Group label>
interval 3

$$$$
>  <Mutation spec>
CUCGAG

>  <Group label>
interval 1

$$$$
>  <Mutation spec>
UAAAAU

>  <Group label>
interval 1

$$$$
>  <Mutation spec>
UCGGUU

>  <Group label>
interval 3

$$$$
>  <Mutation spec>
AUCUGG

>  <Group label>
interval 1

$$$$
>  <Mutation spec>
GAGCAU

>  <Group label>
interval 3

$$$$
>  <Mutation spec>
GCUGUU

>  <Group label>
interval 1

$$$$
>  <Mutation spec>
GUAGAG

>  <Group label>
interval 3

$$$$
>  <Mutation spec>
UGACAA

>  <Group label>
interval 1

$$$$
>  <Mutation spec>
GAUUCA

>  <Group label>
interval 2

$$$$
>  <Mutation spec>
CAAGUU

>  <Group label>
interval 1

$$$$
>  <Mutation spec>
UGCAAU

>  <Group label>
interval 3

$$$$
>  <Mutation spec>
AUUUAU

>  <Group label>
interval 1

$$$$
